ASSAYED SYSTEM: rat TRPM8 (Rattus norvegicus)
Construct: expressed in transfected cells
Sequence (Q8R455 whole entry): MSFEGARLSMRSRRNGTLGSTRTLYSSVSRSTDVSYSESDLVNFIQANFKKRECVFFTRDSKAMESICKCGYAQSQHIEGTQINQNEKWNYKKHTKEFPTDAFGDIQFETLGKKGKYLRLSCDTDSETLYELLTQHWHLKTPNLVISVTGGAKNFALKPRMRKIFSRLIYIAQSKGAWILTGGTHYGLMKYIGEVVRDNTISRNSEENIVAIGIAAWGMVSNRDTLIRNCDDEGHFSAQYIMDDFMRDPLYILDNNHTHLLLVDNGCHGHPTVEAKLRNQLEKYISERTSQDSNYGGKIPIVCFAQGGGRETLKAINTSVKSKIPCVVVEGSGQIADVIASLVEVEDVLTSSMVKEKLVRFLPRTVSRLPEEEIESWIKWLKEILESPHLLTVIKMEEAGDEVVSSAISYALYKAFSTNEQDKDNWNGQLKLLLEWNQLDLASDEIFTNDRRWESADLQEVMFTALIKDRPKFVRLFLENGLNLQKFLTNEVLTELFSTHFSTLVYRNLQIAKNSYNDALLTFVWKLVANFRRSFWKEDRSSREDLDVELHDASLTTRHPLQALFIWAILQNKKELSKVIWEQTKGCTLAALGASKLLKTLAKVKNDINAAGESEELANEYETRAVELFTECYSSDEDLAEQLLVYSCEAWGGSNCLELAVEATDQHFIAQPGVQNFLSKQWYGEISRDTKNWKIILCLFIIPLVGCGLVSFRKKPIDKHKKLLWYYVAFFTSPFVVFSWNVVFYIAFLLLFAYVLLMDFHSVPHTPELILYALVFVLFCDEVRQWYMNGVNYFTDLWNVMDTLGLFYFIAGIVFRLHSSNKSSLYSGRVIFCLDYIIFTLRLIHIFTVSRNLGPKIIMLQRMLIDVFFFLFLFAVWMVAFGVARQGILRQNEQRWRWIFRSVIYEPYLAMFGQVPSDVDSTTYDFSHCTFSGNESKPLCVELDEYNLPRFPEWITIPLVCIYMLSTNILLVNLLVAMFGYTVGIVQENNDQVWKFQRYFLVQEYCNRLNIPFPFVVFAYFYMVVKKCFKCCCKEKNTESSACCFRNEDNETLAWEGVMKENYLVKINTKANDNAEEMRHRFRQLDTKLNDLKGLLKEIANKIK
RUN DESCRIPTION: Thermo-TRP assay: [Ca2+]i elevation (Fluo-4) in HEK-293 cells transfected with TRPM8
Format: cell-based
DETAILS: vs Icilin 0.25 μM; 22 °C; read-out: IC50 TRPM8
Procedure: The compounds were tested on HEK-293 cells either stably transfected with rat TRPA1, TRPV2, TRPV3, TRPV4, TRPM8 or human TRPV1 or not-transfected, by performing a continuous monitoring of the intracellular calcium ([Ca^2+]i) elevation during the experiments, following the protocol already described. […] Cell fluorescence before and after the addition of various concentrations of tested compounds was measured, normalizing the effects against the response to ionomycin (IM, 4 μM). […]
PROPERTY LABEL: pIC50
Would you please state pIC50, meaning minus log10 of the concentration in mol/L, as a bare number?

Q: Item C=C(C)[C@@H]1CCC(C)=C[C@H]1C1=C(O)C(=O)C(C(C)(C)CCCCCC)=CC1=O [5b] : provide pIC50
Ans: 5.92

Q: Item CCCCCCC(C)(C)C1=CC(=O)C(C/C=C(\C)CCC=C(C)C)=C(O)C1=O [7b, p-DMHCBGQ] : provide pIC50
Ans: 4.83

###

ASSAYED SYSTEM: rat TRPV4 (Rattus norvegicus, UniProt Q9ERZ8)
Construct: expressed in transfected cells
Sequence (Q9ERZ8 whole entry): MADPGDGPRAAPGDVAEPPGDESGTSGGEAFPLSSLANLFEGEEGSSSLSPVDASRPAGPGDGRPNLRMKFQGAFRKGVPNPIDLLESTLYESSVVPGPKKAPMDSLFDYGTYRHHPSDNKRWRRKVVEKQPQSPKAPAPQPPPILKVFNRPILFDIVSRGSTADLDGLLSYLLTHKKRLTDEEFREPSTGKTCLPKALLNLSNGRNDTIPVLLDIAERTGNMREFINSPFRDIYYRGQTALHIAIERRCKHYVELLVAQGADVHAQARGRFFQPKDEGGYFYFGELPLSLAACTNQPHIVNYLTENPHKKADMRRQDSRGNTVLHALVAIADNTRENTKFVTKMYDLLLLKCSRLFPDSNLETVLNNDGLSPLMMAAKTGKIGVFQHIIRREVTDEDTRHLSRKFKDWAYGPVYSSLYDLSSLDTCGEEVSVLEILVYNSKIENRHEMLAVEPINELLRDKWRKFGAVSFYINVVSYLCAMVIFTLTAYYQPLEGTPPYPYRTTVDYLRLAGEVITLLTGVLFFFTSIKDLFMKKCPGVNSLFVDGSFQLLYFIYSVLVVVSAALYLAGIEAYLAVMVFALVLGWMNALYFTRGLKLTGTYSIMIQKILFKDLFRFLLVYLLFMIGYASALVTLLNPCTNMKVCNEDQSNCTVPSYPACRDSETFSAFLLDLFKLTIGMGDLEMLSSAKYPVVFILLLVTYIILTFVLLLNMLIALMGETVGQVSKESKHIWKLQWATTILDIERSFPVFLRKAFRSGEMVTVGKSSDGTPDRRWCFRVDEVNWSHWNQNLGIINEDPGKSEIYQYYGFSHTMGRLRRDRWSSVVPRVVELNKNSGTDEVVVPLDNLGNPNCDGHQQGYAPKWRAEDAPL
RUN DESCRIPTION: Thermo-TRP assay: [Ca2+]i elevation (Fluo-4) in HEK-293 cells transfected with TRPV4
Type: cell-based
DETAILS: vs GSK1016790A 10 nM; read-out: IC50 TRPV4
pIC50: −log10 of the molar value.
Please go through the items and note down their pIC50.

Q: Specify the recorded pIC50 for CCCCCCC(C)(C)C1=CC(=O)C(C/C=C(\C)CCC=C(C)C)=C(O)C1=O [7b, p-DMHCBGQ] , system: rat TRPV4 (Rattus norvegicus, UniProt Q9ERZ8).
Ans: < 4.30

Q: Specify the recorded pIC50 for C=C(C)[C@@H]1CCC(C)=C[C@H]1C1=C(O)C(=O)C(C(C)(C)CCCCCC)=CC1=O [5b] , system: rat TRPV4 (Rattus norvegicus, UniProt Q9ERZ8).
Ans: < 4.00

Q: Specify the recorded pIC50 for CCCCCCC(C)(C)C1=CC(=O)C2=C(OC(C)(CCC=C(C)C)C=C2)C1=O (stereo not drawn) [8b] , system: rat TRPV4 (Rattus norvegicus, UniProt Q9ERZ8).
Ans: < 4.00

###

Please go through the items and note down their pIC50.
ASSAYED SYSTEM: human TRPV1 (Homo sapiens)
Construct: expressed in transfected cells
Sequence (Q8NER1 whole entry): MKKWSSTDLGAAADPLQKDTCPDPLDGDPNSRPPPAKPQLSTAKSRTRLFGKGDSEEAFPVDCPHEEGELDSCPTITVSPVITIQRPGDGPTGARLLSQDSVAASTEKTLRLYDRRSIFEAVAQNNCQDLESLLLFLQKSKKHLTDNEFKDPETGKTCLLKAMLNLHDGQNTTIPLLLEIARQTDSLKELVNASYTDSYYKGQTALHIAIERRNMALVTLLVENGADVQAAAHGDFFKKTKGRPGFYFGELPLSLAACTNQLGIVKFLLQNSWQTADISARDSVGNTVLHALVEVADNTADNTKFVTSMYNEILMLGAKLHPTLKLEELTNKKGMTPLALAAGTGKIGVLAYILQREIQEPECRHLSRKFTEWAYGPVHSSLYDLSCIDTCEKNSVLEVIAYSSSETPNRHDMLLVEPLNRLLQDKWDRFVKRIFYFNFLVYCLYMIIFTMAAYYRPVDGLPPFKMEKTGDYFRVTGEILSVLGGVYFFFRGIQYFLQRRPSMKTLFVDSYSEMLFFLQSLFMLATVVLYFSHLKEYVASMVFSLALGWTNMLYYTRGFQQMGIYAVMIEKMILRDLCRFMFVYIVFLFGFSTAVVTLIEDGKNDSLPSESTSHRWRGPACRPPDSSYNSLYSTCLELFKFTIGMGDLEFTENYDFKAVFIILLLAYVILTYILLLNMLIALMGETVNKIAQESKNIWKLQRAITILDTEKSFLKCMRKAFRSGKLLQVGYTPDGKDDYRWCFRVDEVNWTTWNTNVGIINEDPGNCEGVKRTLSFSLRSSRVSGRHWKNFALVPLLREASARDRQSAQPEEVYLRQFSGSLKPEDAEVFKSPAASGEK
RUN DESCRIPTION: Thermo-TRP assay: [Ca2+]i elevation (Fluo-4) in HEK-293 cells transfected with TRPV1
Assay type: cell-based
pIC50: −log10 of the molar value.

Q: Item CCCCCCC(C)(C)C1=CC2=C(C(=O)C1=O)[C@@H]1CC(C)=CC[C@H]1C(C)(C)O2 [6b] : provide pIC50
Ans: < 4.00

Q: Item CCCCCCC(C)(C)C1=CC2=C(C(=O)C1=O)c1cc(C)ccc1C(C)(C)O2 [9b] : provide pIC50
Ans: < 4.00

###

ASSAYED SYSTEM: rat TRPV3 (Rattus norvegicus)
Construct: expressed in transfected cells
Sequence (Q4QYD9 1-791): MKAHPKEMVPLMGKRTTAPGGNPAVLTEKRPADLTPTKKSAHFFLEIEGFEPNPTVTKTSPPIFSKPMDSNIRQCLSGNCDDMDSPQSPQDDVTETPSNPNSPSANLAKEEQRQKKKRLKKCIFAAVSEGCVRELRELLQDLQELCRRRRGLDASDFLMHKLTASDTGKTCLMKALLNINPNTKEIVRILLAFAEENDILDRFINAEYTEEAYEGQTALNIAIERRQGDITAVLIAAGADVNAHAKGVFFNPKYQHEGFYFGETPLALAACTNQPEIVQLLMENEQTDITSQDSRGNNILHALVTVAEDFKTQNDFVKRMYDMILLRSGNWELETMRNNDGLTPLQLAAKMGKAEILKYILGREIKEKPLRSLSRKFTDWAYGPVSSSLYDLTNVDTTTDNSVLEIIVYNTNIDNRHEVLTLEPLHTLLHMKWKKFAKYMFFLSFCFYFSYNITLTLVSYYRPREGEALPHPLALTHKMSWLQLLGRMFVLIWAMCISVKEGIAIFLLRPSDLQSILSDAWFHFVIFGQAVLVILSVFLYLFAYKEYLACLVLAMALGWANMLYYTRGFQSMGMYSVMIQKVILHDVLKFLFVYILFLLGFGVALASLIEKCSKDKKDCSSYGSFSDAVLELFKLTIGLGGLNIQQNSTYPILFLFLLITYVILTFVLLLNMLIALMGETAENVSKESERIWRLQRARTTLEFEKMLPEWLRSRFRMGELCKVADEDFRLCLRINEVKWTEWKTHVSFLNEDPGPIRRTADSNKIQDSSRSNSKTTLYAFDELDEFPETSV
RUN DESCRIPTION: Thermo-TRP assay: [Ca2+]i elevation (Fluo-4) in HEK-293 cells transfected with TRPV3
Assay type: cell-based
DETAILS: antagonist/desensitizing, vs Thymol 100 μM
PROPERTY LABEL: pIC50
Would you please state pIC50, meaning minus log10 of the concentration in mol/L, as a bare number?

Q: Item CCCCCCC(C)(C)C1=CC2=C(C(=O)C1=O)[C@@H]1CC(C)=CC[C@H]1C(C)(C)O2 [6b] : provide pIC50
Ans: 6.14

Q: Item C=C(C)[C@@H]1CCC(C)=C[C@H]1C1=C(O)C(=O)C(C(C)(C)CCCCCC)=CC1=O [5b] : provide pIC50
Ans: 6.12

Q: Item CCCCCCC(C)(C)C1=CC(=O)C2=C(OC(C)(CCC=C(C)C)C=C2)C1=O (stereo not shown) [8b] : provide pIC50
Ans: 4.42

Q: Item CCCCCCC(C)(C)C1=CC2=C(C(=O)C1=O)c1cc(C)ccc1C(C)(C)O2 [9b] : provide pIC50
Ans: 4.71

###

Please go through the items and note down their EC50.
ASSAYED SYSTEM: rat TRPV2 (Rattus norvegicus, UniProt Q9WUD2)
Construct: expressed in transfected cells
Sequence (Q9WUD2 whole entry): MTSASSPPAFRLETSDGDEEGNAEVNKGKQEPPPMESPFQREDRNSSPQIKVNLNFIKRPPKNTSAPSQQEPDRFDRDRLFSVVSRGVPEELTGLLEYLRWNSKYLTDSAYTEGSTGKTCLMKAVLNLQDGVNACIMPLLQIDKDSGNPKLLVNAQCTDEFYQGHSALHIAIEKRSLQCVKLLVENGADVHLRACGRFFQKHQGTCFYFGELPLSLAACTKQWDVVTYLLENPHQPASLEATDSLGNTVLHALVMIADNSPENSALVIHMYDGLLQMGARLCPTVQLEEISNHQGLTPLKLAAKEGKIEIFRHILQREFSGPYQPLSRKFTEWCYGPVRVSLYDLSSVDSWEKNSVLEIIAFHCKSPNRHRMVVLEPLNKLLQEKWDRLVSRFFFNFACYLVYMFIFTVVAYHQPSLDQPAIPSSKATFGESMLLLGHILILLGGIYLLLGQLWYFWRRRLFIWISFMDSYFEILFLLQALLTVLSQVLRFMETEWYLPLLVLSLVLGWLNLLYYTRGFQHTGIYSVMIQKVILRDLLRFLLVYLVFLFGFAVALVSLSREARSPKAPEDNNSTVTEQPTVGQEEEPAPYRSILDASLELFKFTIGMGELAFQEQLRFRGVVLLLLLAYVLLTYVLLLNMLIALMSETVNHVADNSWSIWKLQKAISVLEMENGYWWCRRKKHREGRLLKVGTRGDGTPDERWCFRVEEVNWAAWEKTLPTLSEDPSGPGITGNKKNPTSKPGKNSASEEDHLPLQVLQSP
RUN DESCRIPTION: Thermo-TRP assay: [Ca2+]i elevation (Fluo-4) in HEK-293 cells transfected with TRPV2
Format: cell-based
DETAILS: half-maximal increase in [Ca2+]i; read-out: TRPV2 Potency EC50
Method: The compounds were tested on HEK-293 cells either stably transfected with rat TRPA1, TRPV2, TRPV3, TRPV4, TRPM8 or human TRPV1 or not-transfected, by performing a continuous monitoring of the intracellular calcium ([Ca^2+]i) elevation during the experiments, following the protocol already described. […] Cell fluorescence before and after the addition of various concentrations of tested compounds was measured, normalizing the effects against the response to ionomycin (IM, 4 μM). […]
// note: answer is a bare numeric in µM

Q: Item C=C(C)[C@@H]1CCC(C)=C[C@H]1C1=C(O)C(=O)C(C(C)(C)CCCCCC)=CC1=O [5b] : provide EC50
Ans: 12.2

Q: Item CCCCCCC(C)(C)C1=CC2=C(C(=O)C1=O)c1cc(C)ccc1C(C)(C)O2 [9b] : provide EC50
Ans: 2

Q: Item CCCCCCC(C)(C)C1=CC(=O)C(C/C=C(\C)CCC=C(C)C)=C(O)C1=O [7b, p-DMHCBGQ] : provide EC50
Ans: 30.5

###

Please go through the items and note down their EC50.
ASSAYED SYSTEM: rat TRPV3 (Rattus norvegicus, UniProt Q4QYD9)
Construct: expressed in transfected cells
RUN DESCRIPTION: Thermo-TRP assay: [Ca2+]i elevation (Fluo-4) in HEK-293 cells transfected with TRPV3
Assay type: cell-based
DETAILS: half-maximal increase in [Ca2+]i; read-out: TRPV3 Potency EC50
Experimental: The compounds were tested on HEK-293 cells either stably transfected with rat TRPA1, TRPV2, TRPV3, TRPV4, TRPM8 or human TRPV1 or not-transfected, by performing a continuous monitoring of the intracellular calcium ([Ca^2+]i) elevation during the experiments, following the protocol already described. […] Cell fluorescence before and after the addition of various concentrations of tested compounds was measured, normalizing the effects against the response to ionomycin (IM, 4 μM). […]

Q: Item CCCCCCC(C)(C)C1=CC(=O)C(C/C=C(\C)CCC=C(C)C)=C(O)C1=O [7b, p-DMHCBGQ] : provide EC50
Ans: 1500 nM

Q: Item CCCCCCC(C)(C)C1=CC2=C(C(=O)C1=O)c1cc(C)ccc1C(C)(C)O2 [9b] : provide EC50
Ans: 1150 nM

Q: Item CCCCCCC(C)(C)C1=CC(=O)C2=C(OC(C)(CCC=C(C)C)C=C2)C1=O (centres unmarked) [8b] : provide EC50
Ans: 13600 nM

Q: Item CCCCCCC(C)(C)C1=CC2=C(C(=O)C1=O)[C@@H]1CC(C)=CC[C@H]1C(C)(C)O2 [6b] : provide EC50
Ans: 500 nM

Q: Item C=C(C)[C@@H]1CCC(C)=C[C@H]1C1=C(O)C(=O)C(C(C)(C)CCCCCC)=CC1=O [5b] : provide EC50
Ans: 460 nM
